Where do the numbers come from? From PubChem BioAssay.

# Protocol details: probe aLAP1 signal on lysate-treated microarray – cell lysate, small-molecule microarray, COS7 lysate, primary screen (AID 1124);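 also: lysate comes from COS7 cells expressing LAP1 and is applied at 0.3 µg/mL; score merges spot fluorescence near 667 nm with signal-to-noise over triplicate slides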
# Condition description: probe aLAP1, fluorescence, higher = more signal
Measurement type: composite z-score

Compound	Measurement type	Value measured
C=C(C(=O)CC[C@@H](OC(=O)c1cccnc1)c1ccc(OCCO)cc1)C(C)C	composite z-score	0.354

List the reported composite z-score of each compound below.
1. [N-]=[N+]=Nc1ccccc1[C@@H]1OC(c2ccc(OCCCO)cc2)=N[C@]1(CCS(=O)(=O)c1ccccc1)C(=O)N1CCCCC1
2. COc1ccccc1CN1C(=O)c2ccccc2[C@](Cc2ccccc2I)(C(=O)NC2CC2)[C@@H]1c1ccc(CO)cc1
3. C[C@H]1C2[C@H](Cc3ccccc3)NC(=O)[C@]23C(=O)N[C@H](Cc2ccccc2)C(=O)N[C@H](Cc2ccccc2)C(=O)NC/C=C/CCC/C=C/C3[C@@H]2O[C@]12C (some centres not stated)

A:
1. 0.686
2. 0.524
3. 0.338

====

# Protocol details: JC-1 mitochondrial potential readout, lung cancer cells – cell-based, A549, JC-1 fluorescence, basal, 24 h, 100 nL, profiling panel (AID 1138);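 also: A549 lung adenocarcinoma cells under basal conditions with no added stimulus; test concentration not given here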
# Condition description: higher = more signal
Respond with YES for z-score values of 0.7 and above, NO for values below.

// known answers, use as guide
Compound	Group
C=CCN1C(=O)[C@@]2(O[C@@H](CCO)[C@H]([Si](C)(C)c3ccc(OC)cc3)[C@H]2C)c2cc(NC(C)=O)ccc21	YES
CC(C)C(CO)N1C(=O)[C@@H]2[C@H]3C(=O)OCC=C[C@H]3OC23C=CCN(c2ccc4ccccc4c2)C(=O)[C@@H]13 (stereo partly drawn)	YES
O=C1C2C=CC(C(O)c3ccc(Br)cc3)N(n3cnnc3)C2C(=O)N1Cc1ccccc1 (stereo not drawn)	NO
O=C1C2C=CC(C(O)c3ccccn3)N(Nc3ccccc3F)C2C(=O)N1c1ccccc1 (stereo not drawn)	YES
O=C1[C@H]2C=C(Br)[C@H](C[C@@H]2OCCOCCO)[C@@]12CO2	NO

Q: Can C=C(CCCC)C(=O)CC[C@H](OC(=O)c1ccccc1-c1ccccc1C(=O)O)c1ccc(CO)o1 be said to have z-score at or above 0.7?
A: NO

Q: Can CC1CC/C=C\[C@H]2OC34C=CCN(Cn5nnc6ccccc65)C(=O)[C@H]3N(CCCO)C(=O)[C@@H]4C2C(=O)O1 (stereo partly drawn) be said to have z-score at or above 0.7?
A: NO

====

# Target of assay: Torsin-1A (Homo sapiens) (UniProt O14656)
# Sequence (O14656 whole entry, looked up): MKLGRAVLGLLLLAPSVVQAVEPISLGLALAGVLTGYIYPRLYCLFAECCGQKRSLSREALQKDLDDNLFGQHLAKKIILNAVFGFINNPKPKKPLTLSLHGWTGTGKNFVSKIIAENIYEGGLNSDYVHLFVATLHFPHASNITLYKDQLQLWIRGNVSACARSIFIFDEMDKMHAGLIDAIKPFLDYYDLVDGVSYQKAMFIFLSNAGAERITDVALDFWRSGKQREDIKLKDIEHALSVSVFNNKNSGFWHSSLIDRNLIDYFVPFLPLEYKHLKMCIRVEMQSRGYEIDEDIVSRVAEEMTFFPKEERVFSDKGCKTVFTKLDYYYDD
# Protocol details: TOR1A wild-type binding on microarray – cell lysate, small-molecule microarray, lysate, 635/667 nm, primary screen (AID 1149)
# Condition description: COS7 hTOR1A-WT lysate, 635 nm fluorescence, higher = more signal
Respond with Criterion met for composite z-score values of 0.2 and above, Criterion not met for values below.

// known answers, use as guide
1. O=C1O[C@H](c2ccccc2)[C@H](c2ccccc2)N2[C@H]1[C@@H](C(=O)NC[C@H](O)c1ccccc1)[C@]1(C(=O)Nc3ccc(C#CC4=CCCCC4)cc31)[C@H]2c1ccc(O)cc1 Criterion met
2. COC(=O)[C@@]1(Cc2ccc(F)cc2)[C@H]2c3cc(C(=O)N(C)C)n(CCCNc4ccc(C(F)(F)F)cc4Cl)c3C[C@H]2CN1C(=O)c1ccccc1 Criterion not met
3. [N-]=[N+]=Nc1ccccc1[C@@H]1OC(c2ccc(OCCCO)cc2)=N[C@]1(CCS(=O)(=O)c1ccccc1)C(=O)N1CCCCC1 Criterion met

Q: Can O=C1O[C@H](c2ccccc2)[C@H](c2ccccc2)N2[C@H]1[C@@H](C(=O)N1CCCCCCC1)[C@]1(C(=O)Nc3ccc(C#CC4=CCCCC4)cc31)[C@H]2c1ccc(O)cc1 be said to have composite z-score at or above 0.2?
A: Criterion met

Q: Can CCOC(=O)C1=C[C@@H](C(C)(C)C)N(S(=O)(=O)c2ccc(C)cc2)[C@H]1c1ccc(Cl)c(Cl)c1 be said to have composite z-score at or above 0.2?
A: Criterion not met

Q: Can NC(=O)[C@]1(Cc2ccccc2)N=C(c2ccc(OCCCO)cc2)O[C@@H]1c1ccccc1 be said to have composite z-score at or above 0.2?
A: Criterion not met

Q: Can CC(C)[C@H]1COC(=O)N1C(=O)[C@H]1[C@@H](c2ccccc2)N(c2ccccc2)O[C@@H]1C be said to have composite z-score at or above 0.2?
A: Criterion not met

Q: Can Oc1ccc2cc[n+](Cc3cccc(OC(F)(F)F)c3)cc2c1 be said to have composite z-score at or above 0.2?
A: Criterion not met

Q: Can COCCOC(=O)N1C(=O)[C@@]2(c3cc(C#CCC(C(=O)OC)C(=O)OC)ccc31)[C@H](c1ccc(OCCO)cc1)N1[C@H](c3ccccc3)[C@H](c3ccccc3)OC(=O)[C@H]1[C@@H]2C(=O)NC[C@H](O)c1ccccc1 be said to have composite z-score at or above 0.2?
A: Criterion met

Q: Can CCCCC(=O)N(Cc1ccccc1F)[C@@H]1CC(C(=O)NCCO)=C[C@H](Oc2c(I)cc(CO)cc2OC)[C@H]1O be said to have composite z-score at or above 0.2?
A: Criterion met

====

# Target of assay: Torsin-1A-interacting protein 2 (Homo sapiens)
# Protocol details: small molecules binding lysate-expressed LULL1 – cell lysate, human LULL1 lysate, 635/667 nm fluorescence, primary screen (AID 1092);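 also: probe is lysate of COS7 cells overexpressing human LULL1; score merges per-feature 667 nm fluorescence with signal-to-noise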
# Condition description: small-molecule microarray, hLULL1 lysate binding, 635 nm fluorescence; higher = more signal
Respond with Criterion met for composite z-score values of 3 and above, Criterion not met for values below.

Q: Can Cc1cc(C)c(C(O)C2C=CC3C(=O)NC(=O)C3N2Nc2ccccn2)c(C)c1 (centres undefined) be said to have composite z-score at or above 3?
A: Criterion not met

Q: Can COC(=O)c1c2oc(c1C(=O)OC)C(=O)N[C@H](Cc1ccccc1)Cn1nncc1C1(CCCCC1)NC(=O)N[C@H](CO)CC2 be said to have composite z-score at or above 3?
A: Criterion not met

Q: Can COCCOC(=O)N1C(=O)[C@@]2(c3ccccc31)[C@H](C(=O)N1CCCCCCC1)[C@H]1C(=O)O[C@H](c3ccccc3)[C@H](c3ccccc3)N1[C@@H]2c1ccccc1OCCO be said to have composite z-score at or above 3?
A: Criterion met

Q: Can CCCNC(=O)[C@@]1(C)c2ccccc2C(=O)N(C(C)C)[C@H]1c1ccc(CO)cc1 be said to have composite z-score at or above 3?
A: Criterion not met

Q: Can O=c1cccc(-c2ccc3ccccc3c2)o1 be said to have composite z-score at or above 3?
A: Criterion not met

Q: Can C=C(CCCC)/C(=C/C[C@H](OC(C)=O)c1ccc(CO)o1)c1cc(C(=O)OC)ccc1OC be said to have composite z-score at or above 3?
A: Criterion not met

Q: Can O=C(NCc1ccccc1)[C@@H]1c2ccccc2C(=O)N(Cc2cc(F)cc(C(F)(F)F)c2)[C@H]1c1ccc(CO)cc1 be said to have composite z-score at or above 3?
A: Criterion not met

Q: Can O=C1O[C@@H](c2ccccc2)[C@@H](c2ccccc2)N2[C@@H](c3ccc(O)cc3)[C@]3(C(=O)Nc4ccc(C#CCCO)cc43)[C@@H](C(=O)N3CCCCCCC3)[C@H]12 be said to have composite z-score at or above 3?
A: Criterion met

====

Provide the recorded z-score for the entries that follow.
# Protocol details: blood-stage malaria parasite viability loss – strain 3D7, DAPI fluorescence, 100 nL, primary screen (AID 1184);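 also: parasites grown inside human red blood cells in medium with human serum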
# Condition description: P. falciparum 3D7 growth, 3 d, higher = more signal
Numbers only.

1) C=C(C(=O)CC[C@@H](OC(=O)c1cccnc1)c1ccc(OCCO)cc1)C(C)C -0.496
2) C=C(C(=O)CC[C@@H](OC(C)=O)c1ccc(OCCO)cc1)C(C)C -1.42

Alright, here's another compound for you.
The compound O=S(=O)(NCCCO)c1ccc(Br)cc1 showed z-score equal to 0.327

====

# Target of assay: Torsin-1A (Homo sapiens) (UniProt O14656)
# Protocol details: torsin A mutant lysate binding on microarrays – cell lysate, small-molecule microarray, COS7 lysate, 635/667 nm fluorescence, primary screen (AID 1150);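 also: score pools 667 nm emission and signal to noise measuring lysate protein binding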
# Condition description: COS7 hTOR1A mutant lysate, 635 nm fluorescence, higher = more signal
Respond with yes for composite z-score values of 0.4 and above, no for values below.

// known answers, use as guide
Compound	Target of assay	Group
COc1ccc(C(=O)Nc2cccc(CN3C(=O)[C@@]4(O[C@@H](CC(=O)N5Cc6ccccc6C[C@H]5CO)[C@H]([Si](C)(C)c5ccc(OC)cc5)[C@H]4C)c4ccccc43)c2)cc1	Torsin-1A (Homo sapiens) (UniProt O14656)	yes
Cc1ccc(S[C@]2(C(=O)NCCCN(C)C)CC(=O)N(C(C)C)[C@@H]2c2ccc(CO)cc2I)cc1	Torsin-1A (Homo sapiens) (UniProt O14656)	no
Cc1cccc(/C=C/C=O)c1	Torsin-1A (Homo sapiens) (UniProt O14656)	no
CCCCCCCCCCC(O)C1C=CC2C(=O)N(c3ccccc3)C(=O)C2N1Nc1ccc([N+](=O)[O-])cc1 (configuration not stated)	Torsin-1A (Homo sapiens) (UniProt O14656)	no
COCCOC(=O)N1C(=O)[C@@]2(c3cc(C#CC4(O)CCCCCC4)ccc31)[C@H](c1ccc(O)cc1)N1[C@H](c3ccccc3)[C@H](c3ccccc3)OC(=O)[C@H]1[C@@H]2C(=O)N1CCc2cc(OC)c(OC)cc2C1	Torsin-1A (Homo sapiens) (UniProt O14656)	no

Q: Can C=C(CCCC)/C(=C/C[C@@H](OC(=O)c1ccncc1)c1ccc(CO)o1)c1cc(C(=O)OC)ccc1OC be said to have composite z-score at or above 0.4?
A: yes

Q: Can O=C1OCC=C[C@H]2OC34C=CCN(c5ccc6ccccc6c5)C(=O)[C@H]3N(CCO)C(=O)[C@@H]4[C@@H]12 (some centres not stated) be said to have composite z-score at or above 0.4?
A: no

Q: Can O=C(NCCN1CCOCC1)[C@@H]1c2ccccc2C(=O)N(Cc2cc(F)cc(C(F)(F)F)c2)[C@H]1c1ccc(CO)cc1 be said to have composite z-score at or above 0.4?
A: no

Q: Can CC1CC/C=C\[C@H]2OC34C=CCN(CCN5CCOCC5)C(=O)[C@H]3N(CCCCCO)C(=O)[C@@H]4C2C(=O)O1 (some centres not stated) be said to have composite z-score at or above 0.4?
A: no

Q: Can [N-]=[N+]=NCc1ccccc1[C@@H]1OC(c2ccc(OCCCO)cc2)=N[C@]1(Cc1ccccc1N=[N+]=[N-])C(N)=O be said to have composite z-score at or above 0.4?
A: no

Q: Can CN(C)CCCN1C(=O)[C@@]2(c3ccc([N+](=O)[O-])cc3)CC(=O)N(C3CCCCC3)[C@@H]2c2ccc(CO)cc21 be said to have composite z-score at or above 0.4?
A: no

Q: Can O=C(CS)NCCCCCCNC(=O)[C@H]1C[C@H]2C(=O)N3CCC[C@H]3C(=O)N2[C@H]1c1ccc(O)cc1 be said to have composite z-score at or above 0.4?
A: yes

Q: Can C=CCC(OC(C)=O)[C@@H]1[C@@H](N(Cc2ccc(-c3ccccc3)cc2)C(=O)c2ccc(C)cc2)c2cc(OCCCO)ccc2N1C(=O)Cc1ccc(OC)cc1 (some centres not stated) be said to have composite z-score at or above 0.4?
A: no

Q: Can C=C(C(=O)CC[C@@H](OC(=O)c1cccnc1)c1ccc(CO)o1)C(C)C be said to have composite z-score at or above 0.4?
A: yes

Q: Can COC(=O)[C@@]1(Cc2ccc(F)cc2)[C@H]2c3cc(C(=O)N(C)C)n(CCCNc4ccc(C(F)(F)F)cc4Cl)c3C[C@H]2CN1C(=O)c1ccccc1 be said to have composite z-score at or above 0.4?
A: yes

Q: Can COC(=O)[C@@]1(Cc2ccc(F)cc2)[C@H]2c3cc(C(=O)N(C)C)n(CCc4c[nH]c5ccc(OC)cc45)c3C[C@H]2CN1C(=O)c1ccccc1 be said to have composite z-score at or above 0.4?
A: yes

Q: Can CCCCN1CC=CC23O[C@@H]4C=CCCOC(=O)C4[C@H]2C(=O)N(CCCO)[C@@H]3C1=O (some centres not stated) be said to have composite z-score at or above 0.4?
A: no

Q: Can COCCOC(=O)N1C(=O)[C@@]2(c3cc(C#CCCO)ccc31)[C@H](C(=O)NC[C@H](O)c1ccccc1)[C@H]1C(=O)O[C@H](c3ccccc3)[C@H](c3ccccc3)N1[C@@H]2c1ccc(OCCO)cc1 be said to have composite z-score at or above 0.4?
A: no

Q: Can COc1cc(NN2C(C(O)c3ccccc3)C=CC3C(=O)N(c4ccccc4)C(=O)C32)cc(OC)c1OC (configuration not stated) be said to have composite z-score at or above 0.4?
A: yes
